src = patent US8748466B2

pIC50 for assorted compounds
Molecular target: Pseudomonas aeruginosa LpxC enzyme (Pseudomonas aeruginosa, UniProt P47205)
Construct: made in house; host or cells: E. coli
Sequence (P47205 1-303): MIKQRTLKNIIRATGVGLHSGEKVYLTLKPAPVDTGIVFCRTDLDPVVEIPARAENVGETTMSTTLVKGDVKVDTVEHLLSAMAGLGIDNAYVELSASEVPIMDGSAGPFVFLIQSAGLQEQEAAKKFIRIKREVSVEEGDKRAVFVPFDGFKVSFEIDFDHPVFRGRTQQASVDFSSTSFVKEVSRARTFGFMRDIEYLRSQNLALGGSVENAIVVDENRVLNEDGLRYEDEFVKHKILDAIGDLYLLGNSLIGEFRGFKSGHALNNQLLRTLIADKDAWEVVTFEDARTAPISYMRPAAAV
Assay: LpxC enzyme IC50 assay (PA LpxC enzyme IC50), BioTrove RapidFire mass spectrometry
Type: biochemical
Keep it numeric: pIC50 is minus log10 of the concentration in mol/L.

Examples with their reported pIC50 follow.
> print(dat)
                                   compound  attribute.measured  experimental.value
1  COc1ccc(-c2cc(CC[C@](C)(C(=O)NO)S(C)(=O)=O)on2)c(F)c1 [Example 3]               pIC50                8.36
2  Cc1ccc(-c2cc(CCC(C)(C(=O)NO)S(C)(=O)=O)on2)cc1 (racemic) [Example 38]               pIC50                8.54
3  CC(CCc1cc(-c2cccc(F)c2)on1)(C(=O)NO)S(C)(=O)=O (racemic) [Example 21]               pIC50                8.17

Q) What does the data say about its pIC50? Entry: COc1cccc(-c2cc(CC[C@](C)(C(=O)NO)S(C)(=O)=O)on2)c1F [Example 1]
A) 8.27

Q) What does the data say about its pIC50? Entry: CC(CCc1cc(-c2cccc(Cl)c2Cl)on1)(C(=O)NO)S(C)(=O)=O (racemic) [Example 30]
A) 8.57

Q) What does the data say about its pIC50? Entry: CC(CCc1cc(-c2ccccc2F)on1)(C(=O)NO)S(C)(=O)=O (racemic) [Example 8]
A) 8.08

Q) What does the data say about its pIC50? Entry: C[C@@](CCc1cc(-c2ccccc2)on1)(C(=O)NO)S(C)(=O)=O [Example 6]
A) 9.29

* * *

Target: Pseudomonas aeruginosa LpxC enzyme (Pseudomonas aeruginosa, UniProt P47205)
Construct: made in house; host or cells: E. coli
Experiment: LpxC enzyme IC50 assay (PA LpxC enzyme IC50), BioTrove RapidFire mass spectrometry
Assay type: biochemical
Settings: P. aeruginosa LpxC enzyme 0.1 nM, 25° C., 1 hour, pH 8.0; read-out: PA:IC50
pIC50: −log10 of the molar value.
Output rule met for pIC50 not less than 8; output rule not met otherwise.

> print(dat)
                                   compound                               system.name   label.value
1  COc1ccccc1-c1cc(CCC(C)(C(=O)NO)S(C)(=O)=O)on1 (racemic)  Pseudomonas aeruginosa LpxC enzyme (Pseudomonas aeruginosa, UniProt P47205)  rule not met
2  CC(CCc1cc(-c2ccc3c(c2)OCO3)no1)(C(=O)NO)S(C)(=O)=O (racemic)  Pseudomonas aeruginosa LpxC enzyme (Pseudomonas aeruginosa, UniProt P47205)      rule met

Q) API: above_or_equal(metric=pIC50, cutoff=8) for item CCOC(=O)N(Cc1cc(CCC(C)(C(=O)NO)S(C)(=O)=O)no1)C(C)C (racemic)
A) rule not met

Q) API: above_or_equal(metric=pIC50, cutoff=8) for item CC(CCc1cc(-c2cnc3ccccc3c2)no1)(C(=O)NO)S(C)(=O)=O (racemic)
A) rule not met

Q) API: above_or_equal(metric=pIC50, cutoff=8) for item CC(CCc1cc(-c2ccc(F)cc2F)on1)(C(=O)NO)S(C)(=O)=O (racemic)
A) rule met

Q) API: above_or_equal(metric=pIC50, cutoff=8) for item CC(CCc1cc(CC2(O)CCCCC2)on1)(C(=O)NO)S(C)(=O)=O (racemic)
A) rule not met

Q) API: above_or_equal(metric=pIC50, cutoff=8) for item CC(CCc1cc(-c2ccc3ccccc3n2)no1)(C(=O)NO)S(C)(=O)=O (racemic)
A) rule not met

* * *

Target: Pseudomonas aeruginosa LpxC enzyme (Pseudomonas aeruginosa)
Construct: made in house; host or cells: E. coli
Assay: LpxC enzyme IC50 assay (PA LpxC enzyme IC50), BioTrove RapidFire mass spectrometry
Type: biochemical
Settings: P. aeruginosa LpxC enzyme 0.1 nM, 25° C., 1 hour, pH 8.0; read-out: PA:IC50
Attribute measured: pIC50
Keep it numeric: pIC50 is minus log10 of the concentration in mol/L.

Q) What does the data say about its pIC50? Entry: COc1ccccc1-c1cc(CCC(C)(C(=O)NO)S(C)(=O)=O)no1 (racemic)
A) 7.39

Q) What does the data say about its pIC50? Entry: CC(CCc1cc(COCc2ccccc2)on1)(C(=O)NO)S(C)(=O)=O (racemic)
A) 7.60

Q) What does the data say about its pIC50? Entry: COc1ccccc1OCc1cc(CCC(C)(C(=O)NO)S(C)(=O)=O)no1 (racemic)
A) 7.43

Q) What does the data say about its pIC50? Entry: CC(CCc1cc(-c2ccc(N3CCOCC3)c(F)c2)no1)(C(=O)NO)S(C)(=O)=O (racemic)
A) 7.62

Q) What does the data say about its pIC50? Entry: C[C@@](CCc1cc(-c2ccccc2)no1)(C(=O)NO)S(C)(=O)=O
A) 8.24

* * *

pIC50 for assorted compounds
Target: Pseudomonas aeruginosa LpxC enzyme (Pseudomonas aeruginosa, UniProt P47205)
Construct: made in house; host or cells: E. coli
Experiment: LpxC enzyme IC50 assay (PA LpxC enzyme IC50), BioTrove RapidFire mass spectrometry
Type: biochemical
Conditions: P. aeruginosa LpxC enzyme 0.1 nM, 25° C., 1 hour, pH 8.0; read-out: PA:IC50
Keep it numeric: pIC50 is minus log10 of the concentration in mol/L.

Examples with their reported pIC50 follow.
> print(dat)
                                   compound  experimental.value
1  CC(CCc1cc(CCc2ccccc2)no1)(C(=O)NO)S(C)(=O)=O (racemic)                8.01
2  Cc1cc(-c2cc(CCC(C)(C(=O)NO)S(C)(=O)=O)no2)ccc1OC(F)F (racemic)                8.82
3  CC(CCc1cc(-c2ccc(F)cc2)no1)(C(=O)NO)S(C)(=O)=O (racemic)                8.42
4  CC(CCc1cc(-c2cccc(F)c2)no1)(C(=O)NO)S(C)(=O)=O (racemic)                8.03
5  CC(CCc1cc(-c2c(Cl)cccc2Cl)on1)(C(=O)NO)S(C)(=O)=O (racemic)                7.98

Q) What does the data say about its pIC50? Entry: CC(CCc1cc(-c2ccnc3ccccc23)no1)(C(=O)NO)S(C)(=O)=O (racemic)
A) 8.27

* * *

IC50 for assorted compounds
Target: Pseudomonas aeruginosa LpxC enzyme (Pseudomonas aeruginosa)
Construct: made in house; host or cells: E. coli
Assay: LpxC enzyme IC50 assay (PA LpxC enzyme IC50), BioTrove RapidFire mass spectrometry
Type: biochemical
Conditions: P. aeruginosa LpxC enzyme 0.1 nM, 25° C., 1 hour, pH 8.0; read-out: PA:IC50
Express your answer in nM, writing the number without its unit.

Examples with their reported IC50 follow.
> print(dat)
                                   compound  experimental.value
1  CC(CCc1cc(-c2ccncc2F)no1)(C(=O)NO)S(C)(=O)=O (racemic)                52.4
2  CCc1ccc(-c2cc(CCC(C)(C(=O)NO)S(C)(=O)=O)on2)s1 (racemic)                 1.1
3  CC(CCc1cc(-c2ccc(F)c(F)c2F)no1)(C(=O)NO)S(C)(=O)=O (racemic)                 3.9
4  COc1ccc(-c2cc(CCC(C)(C(=O)NO)S(C)(=O)=O)on2)cc1 (racemic)                 4.1

Q) What does the data say about its IC50? Entry: CC(CCc1cc(-c2ccc(F)c(F)c2)no1)(C(=O)NO)S(C)(=O)=O (racemic)
A) 6.8

Q) What does the data say about its IC50? Entry: COc1ccc(-c2cc(CCC(C)(C(=O)NO)S(C)(=O)=O)on2)cc1OC (racemic)
A) 38.6

Q) What does the data say about its IC50? Entry: COc1cccc(OC)c1-c1cc(CCC(C)(C(=O)NO)S(C)(=O)=O)on1 (racemic)
A) 88.7
